target: Cystic fibrosis transmembrane conductance regulator (Homo sapiens, UniProt P13569, F508DEL); assay: Agonist activity at CFTR-deltaF508 mutant expressed in NIH3T3 cells assessed as increase in forskolin-stimulated current
Sequence (P13569 as listed by the source): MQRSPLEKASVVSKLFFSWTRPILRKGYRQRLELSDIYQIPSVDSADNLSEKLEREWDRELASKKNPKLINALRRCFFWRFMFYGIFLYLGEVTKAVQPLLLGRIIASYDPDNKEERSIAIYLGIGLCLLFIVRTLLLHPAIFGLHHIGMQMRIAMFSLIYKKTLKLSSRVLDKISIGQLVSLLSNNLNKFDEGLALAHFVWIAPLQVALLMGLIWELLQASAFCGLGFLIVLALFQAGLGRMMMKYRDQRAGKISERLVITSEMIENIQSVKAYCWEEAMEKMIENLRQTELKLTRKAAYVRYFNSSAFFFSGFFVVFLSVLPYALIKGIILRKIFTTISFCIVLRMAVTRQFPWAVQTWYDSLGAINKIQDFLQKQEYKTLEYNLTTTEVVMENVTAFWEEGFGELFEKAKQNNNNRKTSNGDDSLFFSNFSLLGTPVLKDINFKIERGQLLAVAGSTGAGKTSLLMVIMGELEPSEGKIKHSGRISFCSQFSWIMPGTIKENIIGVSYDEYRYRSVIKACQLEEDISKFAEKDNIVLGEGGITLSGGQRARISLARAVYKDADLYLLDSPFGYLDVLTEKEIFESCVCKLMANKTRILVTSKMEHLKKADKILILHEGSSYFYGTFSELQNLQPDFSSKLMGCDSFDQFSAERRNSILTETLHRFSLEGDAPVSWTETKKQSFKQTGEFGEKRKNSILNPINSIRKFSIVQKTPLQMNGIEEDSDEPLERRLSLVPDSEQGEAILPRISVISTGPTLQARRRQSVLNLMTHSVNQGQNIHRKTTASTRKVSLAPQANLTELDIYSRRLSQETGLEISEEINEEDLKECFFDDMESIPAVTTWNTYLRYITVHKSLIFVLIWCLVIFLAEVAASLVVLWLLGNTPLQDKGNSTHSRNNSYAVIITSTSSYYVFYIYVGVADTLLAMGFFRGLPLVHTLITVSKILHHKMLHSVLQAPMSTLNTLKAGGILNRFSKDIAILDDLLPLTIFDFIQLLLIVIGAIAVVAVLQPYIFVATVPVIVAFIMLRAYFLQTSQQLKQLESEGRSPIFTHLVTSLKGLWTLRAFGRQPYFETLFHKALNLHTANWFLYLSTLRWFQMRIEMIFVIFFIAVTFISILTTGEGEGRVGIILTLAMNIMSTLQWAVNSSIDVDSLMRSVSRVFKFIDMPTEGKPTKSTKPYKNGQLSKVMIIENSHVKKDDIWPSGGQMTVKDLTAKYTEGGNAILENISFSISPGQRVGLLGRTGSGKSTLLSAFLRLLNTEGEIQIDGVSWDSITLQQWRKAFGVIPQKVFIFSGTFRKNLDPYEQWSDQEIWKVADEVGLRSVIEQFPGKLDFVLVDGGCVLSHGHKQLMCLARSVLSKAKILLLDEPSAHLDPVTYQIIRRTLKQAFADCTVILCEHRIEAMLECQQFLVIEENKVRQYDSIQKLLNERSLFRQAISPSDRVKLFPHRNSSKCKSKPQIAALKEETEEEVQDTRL
readoutLabel: EC50 (µM)

| givenSmiles | readoutLabel | observedValue |
| --- | --- | --- |
| O=c1cc(-c2ccncc2)oc2c1ccc1ccccc12 | EC50 | 3.5 |
